biological target: AQ STING (G230A-R293Q) (Homo sapiens, UniProt Q86WV6, G230A/H232R/R293Q); construct: truncated human WT STING or AQ STING (amino acid residues 140-343); 8xHis (N, cleaved yes); SUMO (N, cleaved yes); made in house; host or cells: E. coli Rosetta-gami B (DE3); experiment: Differential scanning fluorimetry (DSF) with AQ STING; format: binding; conditions: thermal shift, truncated human AQ STING 0.1 mg/ml, 150 μM CDN; read-out: DSF ΔTm AQ STING
Sequence (Q86WV6 140-343 G230A/H232R/R293Q): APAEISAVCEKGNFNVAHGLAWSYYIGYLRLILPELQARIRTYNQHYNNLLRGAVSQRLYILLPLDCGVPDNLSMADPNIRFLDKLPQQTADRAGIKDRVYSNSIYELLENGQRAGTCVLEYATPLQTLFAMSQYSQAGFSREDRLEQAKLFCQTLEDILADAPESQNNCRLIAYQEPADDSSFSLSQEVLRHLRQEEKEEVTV
measured-metric: ΔTm at 150 µM (°C)

Nc1ncnc2c1ncn2[C@@H]1O[C@@H]2COP(=O)(O)O[C@@H]3[C@@H](F)[C@@H](COP(=O)(O)O[C@H]2[C@H]1O)C[C@H]3n1cnc2c(=O)[nH]cnc21 ... 15.8
Nc1nc2c(ncn2[C@@H]2C[C@@H]3COP(=O)(O)OC4C(O)[C@H](n5cnc6c(N)ncnc65)O[C@@H]4COP(=O)(O)OC2C3O)c(=O)[nH]1 (some centres unmarked) ... 19.8
Nc1nc2c(ncn2[C@@H]2C[C@@H]3COP(=O)(O)OC4C(N)[C@H](n5cnc6c(N)ncnc65)O[C@@H]4COP(=O)(O)OC2C3O)c(=O)[nH]1 (some centres unmarked) ... 12.8

I: Nc1ncnc2c1ncn2[C@@H]1O[C@@H]2COP(=O)(S)O[C@@H]3[C@H](F)[C@@H](COP(=O)(S)O[C@H]2[C@H]1F)C[C@H]3n1cnc2c(=O)[nH]cnc21 (single isomer, unassigned) [Compound 128a]
II: CSc1ncnc2c1ncn2[C@@H]1O[C@@H]2COP(=O)(O)OC3C(O)[C@@H](COP(=O)(O)OC2C1O)C[C@H]3n1cnc2c(=O)[nH]cnc21 (some centres unmarked)
Ask | Please choose the item with the lower ΔTm at 150 µM value from this pair: I and II // caller expects the label of the chosen entry
Reply | II
